# System under test: T1, human 5T4-His protein (human, UniProt Q13641 32-355)
# T1 construct: also called recombinant 5T4 protein (human 5T4-his tag); human 5T4 protein; not shown: His tag
# T1 sequence (looked up): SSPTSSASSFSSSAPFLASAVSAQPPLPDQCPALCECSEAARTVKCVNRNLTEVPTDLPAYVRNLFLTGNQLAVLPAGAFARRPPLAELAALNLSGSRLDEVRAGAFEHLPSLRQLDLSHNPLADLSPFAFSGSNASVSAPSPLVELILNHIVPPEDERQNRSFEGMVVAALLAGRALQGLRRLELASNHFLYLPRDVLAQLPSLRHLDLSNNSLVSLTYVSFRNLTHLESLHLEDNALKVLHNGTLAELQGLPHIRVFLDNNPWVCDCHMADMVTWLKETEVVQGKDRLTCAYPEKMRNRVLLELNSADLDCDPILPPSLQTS
# Experimental protocol: ELISA, coated 5T4-His
Measurement label: pEC50
Numbers only, as −log10 of the molar value.

Consider the worked cases shown below.
binder="Hu286B4-19 (antibody, V domains shown, humanized) VH: EVQLQESGPGLVKPSDTLSLTCAVSGYSITNNYYWNWIRQPPGKGLEWMGYITYDGSNNYNPSLKNRITVSRDTSKNQFSLKLSSVTAVDTAVYYCTRGGGQLRFDYWGQGTTVTVSS VL: DIQMTQSPSSLSASVGDRVTITCKASQSVSNEVTWYQQKPGKSPKMLIYYASNRYTGVPDRFSGSGYGTDFTFTISSLQPEDIATYFCQQDYSSPWTFGGGTKVEIK" endpoint_value=9.57
binder="Hu286B4-1 (antibody, V domains shown, humanized) VH: EVQLQESGPGLVKPSDTLSLTCAVSGYSISNNYYWNWIRQPPGKGLEWIGYITYDGSNNYNPSLKNRVTMSRDTSKNQFSLKLSSVTAVDTAVYYCARGGGQLRFDYWGQGTTVTVSS VL: DIQMTQSPSSLSASVGDRVTITCKASQSVSNEVTWYQQKPGKAPKLLIYYASNRYTGVPDRFSGSGSGTDFTFTISSLQPEDIATYYCQQDYSSPWTFGGGTKVEIK" endpoint_value=8.42
binder="Hu286B4-14 (antibody, V domains shown, humanized) VH: EVQLQESGPGLVKPSDTLSLTCAVSGYSISNNYYWNWIRQPPGKGLEWMGYITYDGSNNYNPSLKNRITVSRDTSKNQFSLKLSSVTAVDTAVYYCARGGGQLRFDYWGQGTTVTVSS VL: DIQMTQSPSSLSASVGDRVTITCKASQSVSNEVTWYQQKPGKSPKMLIYYASNRYTGVPDRFSGSGYGTDFTFTISSLQPEDIATYFCQQDYSSPWTFGGGTKVEIK" endpoint_value=9.52
binder="Hu286B4-4 (antibody, V domains shown, humanized) VH: EVQLQESGPGLVKPSDTLSLTCAVSGYSISNNYYWNWIRQPPGKGLEWIGYITYDGSNNYNPSLKNRVTMSRDTSKNQFSLKLSSVTAVDTAVYYCARGGGQLRFDYWGQGTTVTVSS VL: DIQMTQSPSSLSASVGDRVTITCKASQSVSNEVTWYQQKPGKSPKMLIYYASNRYTGVPDRFSGSGYGTDFTFTISSLQPEDIATYFCQQDYSSPWTFGGGTKVEIK" endpoint_value=9.34

Below: the item to evaluate.
Sample Hu286B4-11 (antibody, V domains shown, humanized) VH: EVQLQESGPGLVKPSDTLSLTCAVSGYSISNNYYWNWIRQPPGKGLEWMGYITYDGSNNYNPSLKNRITVSRDTSKNQFSLKLSSVTAVDTAVYYCARGGGQLRFDYWGQGTTVTVSS VL: DIQMTQSPSSLSASVGDRVTITCKASQSVSNEVTWYQQKPGKAPKLLIYYASNRYTGVPDRFSGSGSGTDFTFTISSLQPEDIATYYCQQDYSSPWTFGGGTKVEIK ; pEC50 observed: 8.85
